system: E. coli clinical strain 2019XJ25; test: microbe, parasite or virus in culture; type: cell-based, Escherichia coli; details: clinical strain 2019XJ25
parameter: MIC (µM)

N=C(N)NCCC[C@H](NC(=O)[C@H](CCCNC(=N)N)NC(=O)[C@H](CCCNC(=N)N)NC(=O)[C@H](CCCNC(=N)N)NC(=O)[C@H](CCCNC(=N)N)NC(=O)[C@H](CCCNC(=N)N)NC(=O)[C@H](CCCNC(=N)N)NC(=O)[C@@H](N)CCCNC(=N)N)C(N)=O [Compound D6]
50
CS(=O)(=O)c1ccc([C@@H](OC(=O)CCC(=O)N[C@@H](CCCNC(=N)N)C(N)=O)[C@@H](CF)NC(=O)C(Cl)Cl)cc1 [Compound E2]
25
COC(=O)[C@H](CCCNC(=N)N)NC(=O)CCC(=O)O[C@H](c1ccc(S(C)(=O)=O)cc1)[C@@H](CF)NC(=O)C(Cl)Cl [Compound E1]
25

====

Listed here: items and their measured MIC.
system: E. coli clinical strain 2019XJ25; experiment: microbe, parasite or virus in culture; format: cell-based, Escherichia coli; conditions: Escherichia coli; clinical E. coli 2019XJ25, MHB; read-out: MIC

CS(=O)(=O)c1ccc([C@@H](OC(=O)CCC(=O)O)[C@@H](CF)NC(=O)C(Cl)Cl)cc1 [Compound C1, florfenicol succinate]
> 100 µM
CS(=O)(=O)c1ccc([C@@H](O)[C@@H](CF)NC(=O)C(Cl)Cl)cc1 [Florfenicol]
6.25 µM
CS(=O)(=O)c1ccc([C@@H](OC(=O)CCCC(=O)O)[C@@H](CF)NC(=O)C(Cl)Cl)cc1 [Compound C2, florfenicol glutarate]
> 100 µM

Now for the compound whose MIC we want.
Query: State its MIC on E. coli clinical strain 2019XJ25: CS(=O)(=O)c1ccc([C@@H](OC(=O)CCCCC(=O)O)[C@@H](CF)NC(=O)C(Cl)Cl)cc1 [Compound C3]
Result: > 100 µM

====

test system: MRSA (ATCC 43300); experiment: microbe, parasite or virus in culture; format: cell-based, methicillin-resistant S. aureus; details: ATCC 43300
Where a SMILES comes first, the peptide text is derived from it.
Listed here: items and their measured MIC.

Worked examples, 5 compounds total:
N=C(N)NCCC[C@H](NC(=O)[C@H](CCCNC(=N)N)NC(=O)[C@H](CCCNC(=N)N)NC(=O)[C@H](CCCNC(=N)N)NC(=O)[C@H](CCCNC(=N)N)NC(=O)[C@H](CCCNC(=N)N)NC(=O)[C@H](CCCNC(=N)N)NC(=O)[C@@H](N)CCCNC(=N)N)C(N)=O
25 µM
N=C(N)NCCC[C@H](NC(=O)[C@@H](N)CCCNC(=N)N)C(N)=O [Compound D3] (H-Arg-Arg-NH2)
>100 µM
CS(=O)(=O)c1ccc([C@@H](OC(=O)CCCCC(=O)N[C@@H](CCCNC(=N)N)C(N)=O)[C@@H](CF)NC(=O)C(Cl)Cl)cc1
>100 µM
COC(=O)[C@H](CCCNC(=N)N)NC(=O)CCC(=O)O[C@H](c1ccc(S(C)(=O)=O)cc1)[C@@H](CF)NC(=O)C(Cl)Cl [Compound E1]
50 µM
N=C(N)NCCC[C@H](NC(=O)[C@H](CCCNC(=N)N)NC(=O)[C@H](CCCNC(=N)N)NC(=O)[C@H](CCCNC(=N)N)NC(=O)[C@H](CCCNC(=N)N)NC(=O)[C@@H](N)CCCNC(=N)N)C(N)=O
50 µM

Now for the compound whose MIC we want.
Query: Request the reported MIC associated with COC(=O)[C@@H](N)CCCNC(=N)N [Compound D1]
Result: >100 µM
